Where these numbers come from: patent US10988459B2

# target-or-system: human RIP1 kinase domain (2-375) (Homo sapiens (Human), UniProt Q13546)
# Sequence (Q13546 2-375): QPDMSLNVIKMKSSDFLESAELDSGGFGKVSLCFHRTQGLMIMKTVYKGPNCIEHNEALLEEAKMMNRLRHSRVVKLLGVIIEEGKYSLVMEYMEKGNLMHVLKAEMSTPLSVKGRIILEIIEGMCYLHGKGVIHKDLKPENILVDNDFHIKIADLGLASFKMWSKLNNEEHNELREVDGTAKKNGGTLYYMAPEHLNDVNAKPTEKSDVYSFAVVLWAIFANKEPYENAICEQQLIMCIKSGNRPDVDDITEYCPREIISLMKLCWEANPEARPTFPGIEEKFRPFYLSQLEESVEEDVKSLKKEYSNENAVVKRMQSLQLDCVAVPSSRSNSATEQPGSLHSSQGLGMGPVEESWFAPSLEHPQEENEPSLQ
# experimental-details: biochemical
# Type: biochemical
# test-context: Table 5; apparent Ki (Morrison tight-binding fit); 50 nM RIP1 kinase domain, 50 uM ATP, 2 hours incubation; read-out: Ki
attribute-measured: pKi
In plain terms, pKi is the concentration in mol/L turned into minus its base-10 logarithm.

Worked examples, 3 molecules total:
{"molecule": "CC(C)[C@H]1CCCc2nc(C(=O)N[C@H]3COc4cc(F)cc(F)c4NC3=O)nn21 (single isomer, unassigned) [Example 717]", "pKi": 6.68}
{"molecule": "Cc1nc(-c2cc3n(n2)CCC(NC(=O)c2ncn(Cc4ccccc4)n2)C(=O)N3C)cn1C (racemic) [Example 776]", "pKi": 6.67}
{"molecule": "CN1C(=O)[C@@H](NC(=O)c2ncn(Cc3ccccc3F)n2)CCn2nc(CCN3CC(F)(F)C3)cc21 [Example 773]", "pKi": 6.72}

Lookup: What value of measured pKi is listed for COCCc1cc2n(n1)CC[C@H](NC(=O)c1ncn(Cc3ccccc3F)n1)C(=O)N2C [Example 768] ?
Found: 7.29

---

# target-or-system: human RIP1 kinase domain (2-375) (Homo sapiens (Human))
# experimental-details: biochemical
# Type: biochemical
# test-context: tight-binding apparent inhibition constant; human RIP1 kinase domain (2-375) 50 nM, 50 uM ATP, 2 hours; read-out: Ki
// returns no (0) unless Ki is strictly below 50 nM, in which case yes (1)

{"compound": "Cc1nc(C)n2c1N(C)C(=O)[C@H](NC(=O)c1ncn(Cc3ccccc3)n1)CC2 [Example 608]", "cat": "no (0)"}
{"compound": "CN1C(=O)[C@@H](NC(=O)c2ncc3cnn(C(F)(F)F)c3n2)COc2ccccc21 [Example 360]", "cat": "yes (1)"}
{"compound": "COc1ccccc1Cn1cnc(C(=O)N[C@H]2CCn3nccc3N(C)C2=O)n1 [Example 587]", "cat": "yes (1)"}
{"compound": "CN1C(=O)[C@@H](NC(=O)c2nc3n(n2)C(c2ccccc2)CCC3)COc2ccccc21 (stereo partly drawn) [Example 376]", "cat": "yes (1)"}
{"compound": "CN1C(=O)C(NC(=O)c2ncn(Cc3ccccc3)n2)CCn2nc(C3CCC3)cc21 (stereo not drawn) [Example 454]", "cat": "yes (1)"}
{"compound": "CN1C(=O)[C@@H](NC(=O)c2nc3n(n2)[C@@H](c2ccccc2)CCC3)CCn2nccc21 (racemic) [Example 385]", "cat": "yes (1)"}

Lookup: For CC(=O)c1cc2n(n1)CC[C@H](NC(=O)c1ncn(Cc3ccccc3)n1)C(=O)N2C [Example 366] , is the recorded Ki below the cut-off of 50 nM?
Found: yes (1)

Lookup: Can you check CN1C(=O)[C@@H](NC(=O)c2nc3n(n2)C(c2nccn2C)CC3)COc2ccccc21 (stereo partly drawn) [Example 361] next?
Found: no (0)

Lookup: Can you check CN1C(=O)[C@@H](NC(=O)c2nc3n(n2)CCNC3c2ccccc2)COc2ccccc21 (stereo partly drawn) [Example 452] next?
Found: no (0)

Lookup: Can you check CN1C(=O)[C@@H](NC(=O)c2ncn(Cc3ccccc3)n2)CCn2nc([C@H]3CC3(F)F)cc21 (stereo in doubt) [Example 679] next?
Found: yes (1)

Lookup: Can you check Cc1ncn2c1N(C)C(=O)[C@H](NC(=O)c1ncn(Cc3ccccc3F)n1)CC2 [Example 580] next?
Found: no (0)

---

Recorded pKi values for a group of compounds are listed next.
# target-or-system: human RIP1 kinase domain (2-375) (Homo sapiens (Human), UniProt Q13546)
# experimental-details: biochemical
# Type: biochemical
# test-context: human RIP1 kinase domain (2-375), 50 uM ATP, 2 hours incubation, Transcreener ADP assay; read-out: RIP1 Ki
In plain terms, pKi is the concentration in mol/L turned into minus its base-10 logarithm.

Worked examples, 4 compounds total:
{"compound": "CN1C(=O)[C@@H](NC(=O)c2cc3c(cn2)CO[C@@]32CCOC2)COc2ccccc21 (single isomer, unassigned)", "target-or-system": "human RIP1 kinase domain (2-375) (Homo sapiens (Human), UniProt Q13546)", "pKi": 6.49}
{"compound": "CN1C(=O)[C@@H](NC(=O)c2nnn3c2CC2(CCCC2)C3)COc2ccccc21", "target-or-system": "human RIP1 kinase domain (2-375) (Homo sapiens (Human), UniProt Q13546)", "pKi": 7.30}
{"compound": "CN1C(=O)C(NC(=O)c2ncn(Cc3ccccc3)n2)CCn2nc(-c3ccccc3)cc21 (centres unmarked)", "target-or-system": "human RIP1 kinase domain (2-375) (Homo sapiens (Human), UniProt Q13546)", "pKi": 6.92}
{"compound": "O=C(NC1CCn2ncc3c2N(CCO3)C1=O)c1nnc(Cc2ccccc2)[nH]1 (centres unmarked)", "target-or-system": "human RIP1 kinase domain (2-375) (Homo sapiens (Human), UniProt Q13546)", "pKi": 6.12}

Lookup: What value of measured pKi is listed for `CN1C(=O)[C@@H](NC(=O)c2nnn3c2CC2(CCCC2)C3)CCn2nccc21` ?
Found: 5.68

Lookup: Can you check CN1C(=O)C(NC(=O)c2n[nH]c3c2C[C@@H](C(F)(F)F)CC3)CCn2nc3c(c21)CCCC3 (some centres unmarked) next?
Found: 5.74

Lookup: Can you check `CCOc1ccc2[nH]nc(C(=O)N[C@H]3COc4ccccc4N(C)C3=O)c2n1` next?
Found: 5.43

Lookup: Can you check `CC(C)c1ccc2[nH]nc(C(=O)N[C@H]3COc4ccccc4N(C)C3=O)c2n1` next?
Found: 7.53

---

# target-or-system: human RIP1 kinase domain (2-375) (Homo sapiens (Human))
# experimental-details: biochemical
# Assay type: biochemical
# test-context: human RIP1 kinase domain (2-375), 50 uM ATP, 2 hours incubation, Transcreener ADP assay; read-out: RIP1 Ki
attribute-measured: Ki (nM)
Value expressed in nM; do not type the unit.

Worked examples, 6 compounds total:
{"compound": "CN1C(=O)[C@@H](NC(=O)c2n[nH]c3c2CC(c2ccc(F)cc2F)OC3)COc2ccccc21 (some centres unmarked) [Example 207]", "Ki [nM]": 61.7}
{"compound": "CC(C)n1ncc2c1OC[C@H](NC(=O)c1nnc(Cc3ccccc3)[nH]1)C(=O)N2C [Example 179]", "Ki [nM]": 254}
{"compound": "CN1C(=O)C(NC(=O)c2ccn(Cc3ccc(F)c(F)c3)n2)CCn2ccnc21 (centres unmarked) [Example 177]", "Ki [nM]": 1900}
{"compound": "CCOC(=O)[C@@H]1[C@@H]2CC[C@H](NC(=O)c3ncn(Cc4ccccc4)n3)C(=O)N(C)[C@@H]21 (single isomer, unassigned) [Example 131]", "Ki [nM]": 1300}
{"compound": "CN1C(=O)[C@@H](NC(=O)c2cn(Cc3ccc(F)c(F)c3)cn2)COc2c1cnn2C [Example 183]", "Ki [nM]": 1600}
{"compound": "CN1C(=O)[C@@H](NC(=O)c2nnn3c2C[C@H](C(F)(F)F)CC3)COc2ccccc21 [Example 149]", "Ki [nM]": 64.3}

Lookup: What value of measured Ki is listed for CN1C(=O)[C@@H](NC(=O)c2n[nH]c3c2CC(c2ccc(F)c(F)c2)OC3)COc2ccccc21 (some centres unmarked) [Example 206] ?
Found: 131

Lookup: Can you check CN1C(=O)C(NC(=O)c2nnc(Cc3ccc(F)cc3)[nH]2)CCCn2nccc21 (centres unmarked) [Example 96] next?
Found: 801

---

# target-or-system: human RIP1 kinase domain (2-375) (Homo sapiens (Human), UniProt Q13546)
# experimental-details: biochemical
# Type: biochemical
# test-context: tight-binding apparent inhibition constant; human RIP1 kinase domain (2-375) 50 nM, 50 uM ATP, 2 hours; read-out: Ki
// returns 0 (no) unless Ki is strictly below 70 nM, in which case 1 (yes)

Lookup: For `CN1C(=O)[C@@H](NC(=O)c2ncn(Cc3ccccc3Cl)n2)CCn2nc(C3CC3)cc21` , is the recorded Ki below the cut-off of 70 nM?
Found: 1 (yes)

Lookup: Can you check CN1C(=O)[C@@H](NC(=O)c2nc3n(n2)[C@H](c2ccccc2F)CC3)CCn2nccc21 [Example 669] next?
Found: 0 (no)

Lookup: Can you check `Cc1ncc2n1CC[C@@H](NC(=O)c1ncn(Cc3ccccc3F)n1)C(=O)N2C` next?
Found: 1 (yes)

Lookup: Can you check `Cc1cc2n(n1)CC[C@H](NC(=O)c1nc3n(n1)CCN3c1c(F)cccc1F)C(=O)N2C` next?
Found: 0 (no)

Lookup: Can you check CN1C(=O)[C@@H](NC(=O)c2nc3n(n2)[C@@H](c2ccccc2)CC3)CCn2nccc21 (single isomer, unassigned) [Example 624] next?
Found: 1 (yes)

Lookup: Can you check `CN1C(=O)[C@@H](NC(=O)c2ncc3c(n2)C2(CCCC2)OC3)COc2ccccc21` next?
Found: 1 (yes)

Lookup: Can you check Cc1cc(F)c2c(c1)OC[C@H](NC(=O)c1nc3n(n1)[C@H](C(C)C)CC3)C(=O)N2 (single isomer, unassigned) next?
Found: 0 (no)

Lookup: Can you check `CN1C(=O)[C@@H](NC(=O)c2ncn(Cc3cccc(Cl)c3)n2)CCn2nc(C(F)(F)F)cc21` next?
Found: 1 (yes)

Lookup: Can you check `Cc1nc(C)n2c1N(C)C(=O)[C@H](NC(=O)c1ncn(Cc3ccccc3F)n1)CC2` next?
Found: 0 (no)

Lookup: Can you check `Cc1cc2n(n1)CC[C@H](NC(=O)c1ncn(Cc3ncccc3Cl)n1)C(=O)N2C` next?
Found: 0 (no)

Lookup: Can you check `CN1C(=O)[C@@H](NC(=O)c2ncn(Cc3ccccc3C(F)(F)F)n2)CCn2nccc21` next?
Found: 1 (yes)

Lookup: Can you check `Cc1cc2n(n1)CC[C@H](NC(=O)c1ncn(Cc3ccccc3C(F)(F)F)n1)C(=O)N2C` next?
Found: 1 (yes)

Lookup: Can you check `Cc1cc2n(n1)CC[C@H](NC(=O)c1ncc3cnn(C4CCOCC4)c3n1)C(=O)N2C` next?
Found: 0 (no)

Lookup: Can you check `CN1C(=O)[C@@H](NC(=O)c2ncn(Cc3cccc(Cl)c3)n2)CCn2nc(C3CC3)cc21` next?
Found: 1 (yes)

Lookup: Can you check `O=C(N[C@H]1CCc2cc(F)cc(F)c2NC1=O)c1nc2n(n1)[C@H](C(F)(F)F)CC2` next?
Found: 1 (yes)
